Source: patent US8999956B2

measurement.protocol: log P by HPLC on reversed-phase column (EEC Directive 79/831 Annex V.A8)
Type: physicochemical
Note to self: use Fulfilled only for logP readings below 4; a reading exactly at 4 still gets Not fulfilled.

Recorded results for 8 molecules are shown here.
>>> df
                                   molecule  assigned_category
0  CC(C)N(CC(=O)Nc1ccccc1)C(=O)c1c(C(F)F)nn(C)c1Cl          Fulfilled
1  CC(N(C(=O)c1c(C(F)F)nn(C)c1Cl)C1CC1)C(C)(C)Cc1ccccc1 (stereo not drawn)      Not fulfilled
2  CCCN(CCCOc1c(C)cc(C)cc1C)C(=O)c1c(C(F)F)nn(C)c1F      Not fulfilled
3  Cn1nc(C(F)F)c(C(=O)N(C[Si](C)(C)Cc2ccccc2Cl)C2CC2)c1Cl      Not fulfilled
4  Cn1nc(C(F)F)c(C(=O)N(C[Si](C)(C)Cc2ccc(Cl)cc2Cl)C2CC2)c1F      Not fulfilled
5  Cn1nc(C(F)F)c(C(=O)NCCOc2c(Cl)cc(Cl)cc2Cl)c1Cl          Fulfilled
6  Cn1nc(C(F)F)c(C(=O)NC2CCCCC2Oc2ccccc2)c1F (stereo not drawn)          Fulfilled
7   CN(CC#Cc1ccccc1)C(=O)c1c(C(F)F)nn(C)c1F          Fulfilled

Now take the following molecule into account.
Does CC(COc1ccccc1)NC(=O)c1c(C(F)F)nn(C)c1F (stereo not drawn) have logP strictly under 4?
Fulfilled

====

System: Alternaria solani
measurement.protocol: In vivo preventive test on Alternaria solani (tomato)
recorded.conditions: 500 ppm of active ingredient, evaluated 7 days after inoculation
measurement.label: Efficacy (%)
The reply should be a number in %, with the unit left off.

Check out these entries, answers already filled in.
>>> print(df.to_string())
                                   compound  quantitative_result
0  CON(C(=O)c1c(C(F)F)nn(C)c1Cl)C(C)CCc1c(Cl)cc(Cl)cc1Cl (centres unmarked)                   90
1  Cn1nc(C(F)F)c(C(=O)NC(C)(C)CCc2ccccc2Cl)c1F                   95
2  CC(CNC(=O)c1c(C(F)F)nn(C)c1F)Cc1c(F)cccc1F (centres unmarked)                   80
3  CC(CCc1ccccc1C(F)(F)F)N(C(=O)c1c(C(F)F)nn(C)c1F)C1CC1 (centres unmarked)                  100
4  CC(CCc1ccc(Cl)c(Cl)c1)NC(=O)c1c(C(F)F)nn(C)c1F (racemic)                  100
5  CN(c1ccc(Oc2ccccc2)cc1)C(CNC(=O)c1c(C(F)F)nn(C)c1F)C(F)(F)F (centres unmarked)                   95
6  CC(COc1ccc(Cl)cc1Cl)NC(=O)c1c(C(F)F)nn(C)c1F (centres unmarked)                   90
7  Cn1nc(C(F)F)c(C(=O)N(C[Si](C)(C)Cc2cccc(Cl)c2)C2CC2)c1F                  100

I am curious: what Efficacy value has been reported for `Cn1nc(C(F)F)c(C(=O)N(C[Si](C)(C)Cc2ccccc2)C2CC2)c1Cl` ?
95

I am curious: what Efficacy value has been reported for CCCCC1CCCCC1NC(=O)c1c(C(F)F)nn(C)c1Cl (centres unmarked) ?
100

I am curious: what Efficacy value has been reported for CC(N(C(=O)c1c(C(F)F)nn(C)c1F)C1CC1)C(C)(C)Cc1ccc(Cl)cc1Cl (centres unmarked) ?
100

I am curious: what Efficacy value has been reported for Cn1nc(C(F)F)c(C(=O)N(C2CC2)C2CCCCC2C(C)(C)C)c1F (centres unmarked) ?
90

I am curious: what Efficacy value has been reported for CN(CC(NC(=O)c1c(C(F)F)nn(C)c1F)C1CC1)c1ccccc1 (centres unmarked) ?
95

I am curious: what Efficacy value has been reported for Cn1nc(C(F)F)c(C(=O)NC(COc2ccc(Cl)cc2Cl)C2CC2)c1F (centres unmarked) ?
95

I am curious: what Efficacy value has been reported for `Cn1nc(C(F)F)c(C(=O)N(C[Si](C)(C)Cc2ccccc2Cl)C2CC2)c1F` ?
100

I am curious: what Efficacy value has been reported for CC(COc1ccccc1)N(C)C(=O)c1c(C(F)F)nn(C)c1F (centres unmarked) ?
90

I am curious: what Efficacy value has been reported for CC(CC(C)(C)C)C1CCCCC1NC(=O)c1c(C(F)F)nn(C)c1F (single isomer, unassigned) [Example 360] ?
95

====

Measured Efficacy by item
Test system: Alternaria solani
measurement.protocol: In vivo preventive test on Alternaria solani (tomato)
recorded.conditions: 500 ppm of active ingredient, evaluated 7 days after inoculation
The reply should be a number in %, with the unit left off.

Check out these entries, answers already filled in.
                                   compound  measurement_label  quantitative_result
0  CN(CCCc1ccccc1Cl)C(=O)c1c(C(F)F)nn(C)c1F [Example 142]           Efficacy                  100
1  Cn1nc(C(F)F)c(C(=O)N(C2CC2)C2CCCCC2C2CCCCC2)c1F (centres unmarked) [Example 372]           Efficacy                   95
2  Cn1nc(C(F)F)c(C(=O)NC(COc2ccc3ccccc3c2)C2CC2)c1F (racemic) [Example 137]           Efficacy                   95

I am curious: what Efficacy value has been reported for Cn1nc(C(F)F)c(C(=O)N(C2CC2)C2CCCCC2Cc2ccccc2)c1F (mixture of isomers) [Example 243] ?
100

I am curious: what Efficacy value has been reported for CCN(C(=O)c1c(C(F)F)nn(C)c1F)C(C)COc1ccc(C)cc1 (centres unmarked) [Example 38] ?
80

I am curious: what Efficacy value has been reported for CCC(COc1cc(C)cc(C)n1)NC(=O)c1c(C(F)F)nn(C)c1Cl (centres unmarked) [Example 67] ?
70

I am curious: what Efficacy value has been reported for Cn1nc(C(F)F)c(C(=O)NC2CCCC2CCC(C)(C)C)c1F (centres unmarked) [Example 319] ?
100

I am curious: what Efficacy value has been reported for Cn1nc(C(F)F)c(C(=O)N(CC2CCCCC2c2ccc(Cl)cc2Cl)C2CC2)c1F (centres unmarked) [Example 242] ?
100

====

measurement.protocol: log P by HPLC on reversed-phase column (EEC Directive 79/831 Annex V.A8)
Assay type: physicochemical
measurement.label: logP

In [3]: df
Out[3]:
                                   compound  measurement_label  result
0  Cn1nc(C(F)F)c(C(=O)NC(C)(C)CCc2ccc(Cl)cc2Cl)c1F [Example 196]               logP    4.39
1  CC1CCCC(C)(C)C1CCC(C)N(C(=O)c1c(C(F)F)nn(C)c1F)C1CC1 (stereo not drawn) [Example 367]               logP    5.81
2  Cn1nc(C(F)F)c(C(=O)NC2CCCC2Sc2ncccn2)c1Cl (stereo not drawn) [Example 257]               logP    2.26
3  Cn1nc(C(F)F)c(C(=O)NC2(C3CCCCC3)CC2)c1Cl [Example 380]               logP    3.29

I am curious: what logP value has been reported for Cn1nc(C(F)F)c(C(=O)NCCOc2cc(Cl)ccc2Cl)c1Cl [Example 170] ?
3.31

I am curious: what logP value has been reported for Cn1nc(C(F)F)c(C(=O)N(C2CC2)C2CCCC(c3ccccc3)C2)c1F (stereo not drawn) [Example 256] ?
4.01

I am curious: what logP value has been reported for CC(COc1cc(Cl)cc(Cl)c1)NC(=O)c1c(C(F)F)nn(C)c1F (racemic) [Example 121] ?
3.72

I am curious: what logP value has been reported for Cn1nc(C(F)F)c(C(=O)NC2CCCCC2CC[Si](C)(C)C)c1F (stereo not drawn) [Example 353] ?
4.70

I am curious: what logP value has been reported for Cn1nc(C(F)F)c(C(=O)NCCOc2ccc(C(F)(F)F)cc2)c1F [Example 68] ?
3.04

====

measurement.protocol: log P by HPLC on reversed-phase column (EEC Directive 79/831 Annex V.A8)
Assay type: physicochemical
measurement.label: logP

Check out these entries, answers already filled in.
>>> print(df.to_string())
                                   molecule  measurement_label  result
0  Cn1nc(C(F)F)c(C(=O)NC2CCCCC2C(C)(C)C)c1F (stereo not drawn)               logP    3.79
1  CC(C)C(CCc1ccc(Cl)cc1)NC(=O)c1c(C(F)F)nn(C)c1Cl (stereo not drawn)               logP    4.11
2  CC(CCc1cc(Cl)ccc1Cl)NC(=O)c1c(C(F)F)nn(C)c1F (stereo not drawn)               logP    3.68

I am curious: what logP value has been reported for CC1CC(N(C(=O)c2c(C(F)F)nn(C)c2F)C2CC2)CC(C)(C)C1 (stereo not drawn) ?
4.31

I am curious: what logP value has been reported for CC(CCc1ccccc1Cl)NC(=O)c1c(C(F)F)nn(C)c1Cl (racemic) ?
3.41

I am curious: what logP value has been reported for Cn1nc(C(F)F)c(C(=O)N(CCOc2c(Cl)cccc2Cl)C2CC2)c1F [Example 162] ?
3.55

I am curious: what logP value has been reported for CCCCC1CCCCC1NC(=O)c1c(C(F)F)nn(C)c1Cl (stereo not drawn) ?
4.10

I am curious: what logP value has been reported for C=CCC1CCCCC1N(C(=O)c1c(C(F)F)nn(C)c1Cl)C1CC1 (stereo not drawn) ?
4.16

I am curious: what logP value has been reported for Cn1nc(C(F)F)c(C(=O)NC(COc2ccc(Cl)cc2Cl)C2CC2)c1F (stereo not drawn) ?
3.92
